Would you mind telling me the reported pKi of each entry?
Protein target, amino acids: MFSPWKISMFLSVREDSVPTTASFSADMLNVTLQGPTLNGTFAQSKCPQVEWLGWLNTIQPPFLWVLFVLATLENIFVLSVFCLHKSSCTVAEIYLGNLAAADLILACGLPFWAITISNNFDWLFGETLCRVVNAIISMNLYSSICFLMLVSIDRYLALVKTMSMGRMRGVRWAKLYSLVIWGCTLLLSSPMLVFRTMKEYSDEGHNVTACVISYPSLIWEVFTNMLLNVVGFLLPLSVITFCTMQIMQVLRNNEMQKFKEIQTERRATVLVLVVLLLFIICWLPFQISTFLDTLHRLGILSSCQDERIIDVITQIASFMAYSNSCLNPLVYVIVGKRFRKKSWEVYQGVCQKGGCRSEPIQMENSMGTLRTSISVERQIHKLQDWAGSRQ
Quick note: pKi values are minus log10 of concentrations in mol/L.

The compound identified as O=C(C[C@@H](NS(=O)(=O)c1ccc2ccccc2c1)c1ccccc1)N[C@H]1CCc2cc(CN3CCCCC3)ccc21 registered its pKi at 4.88

The compound identified as O=C(C[C@@H](NS(=O)(=O)c1ccc2ccccc2c1)c1ccccc1)N[C@@H]1CCc2cc(CN3CCCCC3)ccc21 registered its pKi at 4.31

The compound identified as CN1c2cc(CN3CCCCC3)ccc2[C@H](NC(=O)C[C@@H](NS(=O)(=O)c2ccc3ccccc3c2)c2ccccc2)CS1(=O)=O registered its pKi at 4.80

The compound identified as O=C(CC(NS(=O)(=O)c1ccc2ccccc2c1)c1ccccc1)NCc1ccc(CN2CCCCC2)cc1 (racemic) registered its pKi at 4.25

The compound identified as CN1c2cc(CN3CCCCC3)ccc2[C@@H](NC(=O)C[C@@H](NS(=O)(=O)c2ccc3ccccc3c2)c2ccccc2)CS1(=O)=O registered its pKi at 4.46

----------
methodSummary: AUC (0-t) in rat at 1 mg/kg, iv
Assay type: ADME, organism-based
Design: dose 1 mg/kg, route intravenous
experimentalSetup: plasma
reportedEndpoint: AUC(0-t) (ng·h/mL)
Write down the numeric answer in ng·h/mL and omit the unit.

The compound identified as O=C(C[C@@H](NS(=O)(=O)c1ccc2ccccc2c1)c1ccccc1)N[C@@H]1CCOc2cc(CN3CCCCC3)ccc21 registered its AUC(0-t) at 194

----------
Tested on: Rattus norvegicus
methodSummary: Relevant drug concentration for 5-6 hrs in rat at 90 mg/kg, sc
Assay type: ADME, organism-based
Parameters: dose 90 mg/kg, route subcutaneous
experimentalSetup: in vivo
reportedEndpoint: concentration (nM)
Write down the numeric answer in nM and omit the unit.

The compound identified as O=C(C[C@@H](NS(=O)(=O)c1ccc2ccccc2c1)c1ccccc1)N[C@@H]1CCOc2cc(CN3CCCCC3)ccc21 registered its concentration at 125

----------
System: Plasma
methodSummary: Fraction unbound in rat plasma
Format: ADME, cell-free
reportedEndpoint: Fu
Just the number.

The compound identified as O=C(C[C@@H](NS(=O)(=O)c1ccc2ccccc2c1)c1ccccc1)N[C@@H]1CCOc2cc(CN3CCCCC3)ccc21 registered its Fu at 0.032

----------
methodSummary: AUC (0-t) in rat at 10 mg/kg, sc
Assay type: ADME, organism-based
Design: dose 10 mg/kg, route subcutaneous
experimentalSetup: plasma
reportedEndpoint: AUC(0-t) (ng·h/mL)
Write down the numeric answer in ng·h/mL and omit the unit.

The molecule identified as O=C(C[C@@H](NS(=O)(=O)c1ccc2ccccc2c1)c1ccccc1)N[C@@H]1CCOc2cc(CN3CCCCC3)ccc21 registered its AUC(0-t) at 1960

----------
methodSummary: Cmax in rat at 10 mg/kg, sc
Type: ADME, organism-based
Parameters: dose 10 mg/kg, route subcutaneous
experimentalSetup: in vivo
reportedEndpoint: Cmax (ng/mL)
Write down the numeric answer in ng/mL and omit the unit.

The compound identified as O=C(C[C@@H](NS(=O)(=O)c1ccc2ccccc2c1)c1ccccc1)N[C@@H]1CCOc2cc(CN3CCCCC3)ccc21 registered its Cmax at 825

----------
methodSummary: Clearance in rat at 10 mg/kg, sc
Assay type: ADME, organism-based
Set-up: dose 10 mg/kg, route subcutaneous
experimentalSetup: in vivo
reportedEndpoint: CL/F (mL/min/kg)
Write down the numeric answer in mL/min/kg and omit the unit.

The molecule identified as O=C(C[C@@H](NS(=O)(=O)c1ccc2ccccc2c1)c1ccccc1)N[C@@H]1CCOc2cc(CN3CCCCC3)ccc21 registered its CL/F at 79.6
